test system: Foxtail, Giant (giant foxtail, Setaria faberi); assay: Test A preemergence, Foxtail, Giant; type: in vivo; details: Preemergence, 500 g ai/ha; 0 to 100 scale (0 no effect, 100 complete control)
quantityKind: Plant response rating, Foxtail, Giant

[[record]]
structurestring = "Cc1cc(C)c(N(S(=O)(=O)C(F)(F)F)S(=O)(=O)C(F)(F)F)cc1C1=NOC2(CCOCC2)C1"
measuredtarget = "Foxtail, Giant (giant foxtail, Setaria faberi)"
reportedvalue = 100

[[record]]
structurestring = "Cc1cc(F)c(C(=O)N(C)C)cc1NS(=O)(=O)C(F)(F)F"
measuredtarget = "Foxtail, Giant (giant foxtail, Setaria faberi)"
reportedvalue = 70

[[record]]
structurestring = "Cc1ccc(-c2ccnn(C)c2=O)cc1N(S(=O)(=O)C(F)(F)F)S(=O)(=O)C(F)(F)F"
measuredtarget = "Foxtail, Giant (giant foxtail, Setaria faberi)"
reportedvalue = 60

[[record]]
structurestring = "Cc1c(NS(=O)(=O)C(F)(F)F)cc(C(=O)N2CCC3(CC2)OCCCO3)c(C)c1F"
measuredtarget = "Foxtail, Giant (giant foxtail, Setaria faberi)"
reportedvalue = 100

[[record]]
structurestring = "Cc1cc(F)c(C(=O)N2CCCCC2)cc1NS(=O)(=O)C(F)(F)F"
measuredtarget = "Foxtail, Giant (giant foxtail, Setaria faberi)"
reportedvalue = 90

[[record]]
structurestring = "CCn1nc(C)cc(-c2cc(NS(=O)(=O)C(F)(F)F)c(C)cc2C)c1=O"
measuredtarget = "Foxtail, Giant (giant foxtail, Setaria faberi)"
reportedvalue = 100


---

tested on: Ryegrass, Italian (Italian ryegrass, Lolium multiflorum); assay: Test A1 postemergence, Ryegrass, Italian; assay type: in vivo; conditions: 31 g ai/ha, postemergence; 0 to 100 scale (0 no effect, 100 complete control)
quantityKind: Ryegrass, Italian plant response rating

[[record]]
compound = "Cc1c(C2=NOC3(CCCC3)C2)cc(N(COC(=O)C(C)(C)C)S(=O)(=O)C(F)(F)F)c(C)c1C [Compound 382]"
measuredtarget = "Ryegrass, Italian (Italian ryegrass, Lolium multiflorum)"
quantitykind = "Ryegrass, Italian plant response rating"
reportedvalue = 0

[[record]]
compound = "COC1CCN(C(=O)c2cc(NS(=O)(=O)C(F)(F)F)c(C)c(C)c2C)CC1 [Compound 367]"
measuredtarget = "Ryegrass, Italian (Italian ryegrass, Lolium multiflorum)"
quantitykind = "Ryegrass, Italian plant response rating"
reportedvalue = 0

[[record]]
compound = "Cc1cc(C)c(C2=NOC3OCCCC23)cc1NS(=O)(=O)C(F)(F)F (centres unmarked) [Compound 372]"
measuredtarget = "Ryegrass, Italian (Italian ryegrass, Lolium multiflorum)"
quantitykind = "Ryegrass, Italian plant response rating"
reportedvalue = 0

[[record]]
compound = "CCC1CC(c2cc(NS(=O)(=O)C(F)(F)F)c(C)cc2C)=NO1 (centres unmarked) [Compound 375]"
measuredtarget = "Ryegrass, Italian (Italian ryegrass, Lolium multiflorum)"
quantitykind = "Ryegrass, Italian plant response rating"
reportedvalue = 0

[[record]]
compound = "Cc1cc(C)c(N(COC(=O)C(C)(C)C)S(=O)(=O)C(F)(F)F)cc1N1CCC2(CCC(C)CC2)C1=O (centres unmarked) [Compound 401]"
measuredtarget = "Ryegrass, Italian (Italian ryegrass, Lolium multiflorum)"
quantitykind = "Ryegrass, Italian plant response rating"
reportedvalue = 0

[[record]]
compound = "COC1CCC2(CC1)CCN(c1cc(NS(=O)(=O)C(F)(F)F)c(C)cc1C)C2=O (centres unmarked) [Compound 398]"
measuredtarget = "Ryegrass, Italian (Italian ryegrass, Lolium multiflorum)"
quantitykind = "Ryegrass, Italian plant response rating"
reportedvalue = 50

[[record]]
compound = "CCOc1cccc2c1C(=O)N(c1cc(N(COC(=O)C(C)(C)C)S(=O)(=O)Cl)c(C)cc1C)C2 [Compound 414]"
measuredtarget = "Ryegrass, Italian (Italian ryegrass, Lolium multiflorum)"
quantitykind = "Ryegrass, Italian plant response rating"
reportedvalue = 0

[[record]]
compound = "Cc1c(NS(=O)(=O)C(F)(F)F)cc(C2=NOC3(CCCC3)C2)c(C)c1C [Compound 380]"
measuredtarget = "Ryegrass, Italian (Italian ryegrass, Lolium multiflorum)"
quantitykind = "Ryegrass, Italian plant response rating"
reportedvalue = 0

[[record]]
compound = "Cc1cc(Cl)c(NS(=O)(=O)C(F)(F)F)cc1N1CCC2(CCCCC2)C1=O [Compound 393]"
measuredtarget = "Ryegrass, Italian (Italian ryegrass, Lolium multiflorum)"
quantitykind = "Ryegrass, Italian plant response rating"
reportedvalue = 30

[[record]]
compound = "Cc1cc(C)c(N2Cc3cccc(Br)c3C2=O)cc1NS(=O)(=O)Cl [Compound 415]"
measuredtarget = "Ryegrass, Italian (Italian ryegrass, Lolium multiflorum)"
quantitykind = "Ryegrass, Italian plant response rating"
reportedvalue = 0

[[record]]
compound = "Cc1cc(C)c(N(COC(=O)C(C)(C)C)S(=O)(=O)C(F)(F)F)cc1N1CCC2(CCC(C(F)(F)F)CC2)C1=O (centres unmarked) [Compound 403]"
measuredtarget = "Ryegrass, Italian (Italian ryegrass, Lolium multiflorum)"
quantitykind = "Ryegrass, Italian plant response rating"
reportedvalue = 0

